Where these numbers come from: patent US10925971B2

# System: Macaca fascicularis PRLR (mfPRLR.mmh; SEQ ID NO:403)
# Sequence (as listed by the source): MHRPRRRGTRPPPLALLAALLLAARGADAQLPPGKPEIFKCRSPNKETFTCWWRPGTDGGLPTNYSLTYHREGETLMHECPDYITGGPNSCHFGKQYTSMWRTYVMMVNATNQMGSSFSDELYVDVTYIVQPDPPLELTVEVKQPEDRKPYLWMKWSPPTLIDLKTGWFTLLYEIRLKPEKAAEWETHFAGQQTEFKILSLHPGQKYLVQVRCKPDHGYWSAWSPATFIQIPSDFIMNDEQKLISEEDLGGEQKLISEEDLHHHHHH
# ASSAY SUMMARY: Surface plasmon resonance (Biacore T200), antibody-capture format
# Assay type: binding
# ASSAY SETUP: 25° C., analyte mfPRLR.mmh
# Experimental: Antibodies, expressed as human IgG1 Fc (i.e., “H1H” designations), were captured onto an anti-human Fc sensor surface (mAb-capture format), and soluble monomeric (hPRLR.mmh; SEQ ID NO:401, or Macaca fascicularis (mf) PRLR.mmh; SEQ ID NO:403) or dimeric (hPRLR.mFc; SEQ ID NO:402) PRLR protein was injected over the sensor surface. Measurements were conducted on a T200 Biacore instrument. […]
Give measured ka for each item. Keep answers brief.
Give bare numbers, in M/s.

[[record]]
molecule = "H1H6781P: fully human anti-PRLR antibody, human IgG1 Fc; HCVR/LCVR SEQ ID NOs 50/58 (antibody, V domains shown) VH: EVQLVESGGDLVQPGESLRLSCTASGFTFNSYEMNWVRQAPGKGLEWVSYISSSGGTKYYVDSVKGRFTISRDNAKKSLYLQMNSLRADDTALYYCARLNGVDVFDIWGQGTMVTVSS VL: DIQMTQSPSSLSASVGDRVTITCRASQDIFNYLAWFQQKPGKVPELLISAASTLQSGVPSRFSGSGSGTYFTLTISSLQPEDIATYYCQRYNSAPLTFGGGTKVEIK"
outcome_measure = "ka"
units_of_measure = "M/s"
meas_value = 143000


Q: Requested field: ka. Item: H1H6792P: fully human anti-PRLR antibody, human IgG1 Fc; HCVR/LCVR SEQ ID NOs 130/138 (antibody, V domains shown) VH: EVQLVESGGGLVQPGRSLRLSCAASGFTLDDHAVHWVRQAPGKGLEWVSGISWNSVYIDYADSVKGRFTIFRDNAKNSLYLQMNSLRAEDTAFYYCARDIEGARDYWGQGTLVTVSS VL: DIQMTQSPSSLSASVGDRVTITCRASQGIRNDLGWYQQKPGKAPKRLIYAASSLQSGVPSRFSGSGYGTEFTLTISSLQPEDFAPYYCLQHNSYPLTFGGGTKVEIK
A: 236000
